# Test system: HL-1
# assayNotes: relative cell viability (CellTiter-Glo) vs DMSO control (% of DMSO control); higher = more viable cells
# conditions: oxygen condition: hypoxia 48 h (1% O2) + reoxygenation 24 h; 5000 nM
Counter-ions that a name gives are not always drawn.
# reported relative cell viability; entries follow

{"compound": "CC(C)(C)NC(=O)[C@H]1CC[C@H]2[C@@H]3CC[C@H]4NC(=O)C=C[C@]4(C)[C@H]3CC[C@]12C [Finasteride]", "relative cell viability": 117}
{"compound": "N[C@@H](Cc1cc(I)c(Oc2cc(I)c(O)c(I)c2)c(I)c1)C(=O)O", "relative cell viability": 110}
{"compound": "CCCCNC(=O)NS(=O)(=O)c1ccc(C)cc1 [Tolbutamide]", "relative cell viability": 113}
{"compound": "Cc1ncc([N+](=O)[O-])n1CC(O)CCl (stereo not drawn)", "relative cell viability": 115}
{"compound": "CCC(=O)O[C@@H](O[P@](=O)(CCCCc1ccccc1)CC(=O)N1C[C@H](C2CCCCC2)C[C@H]1C(=O)O)C(C)C [Fosinopril sodium]", "relative cell viability": 108}
{"compound": "CCCCc1oc2ccc(NS(C)(=O)=O)cc2c1C(=O)c1ccc(OCCCN(CCCC)CCCC)cc1 [Dronedarone HCl]", "relative cell viability": 105}
{"compound": "O=C[C@H](O)[C@@H](O)[C@H](O)CO", "relative cell viability": 111}
{"compound": "COc1cc2c(cc1O)CC[C@@H]1[C@@H]2CC[C@]2(C)[C@@H](O)CC[C@@H]12", "relative cell viability": 112}

###

# System: HL-1
# assayNotes: relative cell viability (CellTiter-Glo) vs DMSO control (% of DMSO control); higher = more viable cells
# conditions: oxygen condition: normoxia 72 h; 200 nM
Counter-ions that a name gives are not always drawn.
# reported relative cell viability; entries follow

{"compound": "OCCOCCN1CCN(C(c2ccccc2)c2ccc(Cl)cc2)CC1 (centres undefined) [Hydroxyzine 2HCl]", "relative cell viability": 107}
{"compound": "C#C[C@]1(O)CC[C@H]2[C@@H]3CCc4cc(OC)ccc4[C@H]3CC[C@@]21C [Mestranol]", "relative cell viability": 97.3}
{"compound": "CCC1=C(C)CN(C(=O)NCCc2ccc(S(=O)(=O)NC(=O)N[C@H]3CC[C@H](C)CC3)cc2)C1=O [Glimepiride]", "relative cell viability": 77.4}
{"compound": "CC(=O)OCC(=O)NCCCOc1cccc(CN2CCCCC2)c1 [Roxatidine acetate HCl]", "relative cell viability": 102}
{"compound": "CN1CCN(CCCN2c3ccccc3Sc3ccc(C(F)(F)F)cc32)CC1 [Trifluoperazine 2HCl]", "relative cell viability": 106}
{"compound": "OC(CCN1CCCCC1)(c1ccccc1)C1CC2C=CC1C2 (centres undefined) [Biperiden HCl]", "relative cell viability": 106}
{"compound": "O=NO [Sodium nitrite]", "relative cell viability": 116}
{"compound": "CN(C)CCN(Cc1cccs1)c1ccccn1 [Methapyrilene HCl]", "relative cell viability": 107}
{"compound": "CCCCNC(=O)NS(=O)(=O)c1ccc(C)cc1 [Tolbutamide]", "relative cell viability": 102}

###

# Test system: HL-1
# assayNotes: relative cell viability (CellTiter-Glo) vs DMSO control (% of DMSO control); higher = more viable cells
# conditions: oxygen condition: hypoxia 48 h (1% O2) + reoxygenation 24 h; 1000 nM
Where a name gives a salt, the structure may show the parent alone.
// returns No unless relative cell viability is strictly below 100, in which case Yes

{"molecule": "CCc1ccc(CCOc2ccc(CC3SC(=O)NC3=O)cc2)nc1 (centres undefined) [Pioglitazone]", "labelValue": "No"}
{"molecule": "Nc1nc(Cl)nc2c1ncn2[C@H]1C[C@H](O)[C@@H](CO)O1 [Cladribine]", "labelValue": "Yes"}
{"molecule": "CNC(=O)c1cc(Oc2ccc(NC(=O)Nc3ccc(Cl)c(C(F)(F)F)c3)c(F)c2)ccn1 [Regorafenib]", "labelValue": "No"}
{"molecule": "NC12CC3CC(CC(C3)C1)C2 [Amantadine hydrochloride]", "labelValue": "Yes"}
{"molecule": "Cc1cccc(C)c1OCC(C)N (centres undefined) [Mexiletine HCl]", "labelValue": "No"}

###

# System: HL-1
# assayNotes: relative cell viability (CellTiter-Glo) vs DMSO control (% of DMSO control); higher = more viable cells
# conditions: oxygen condition: normoxia 72 h; 1000 nM
Where a name gives a salt, the structure may show the parent alone.

{"compound": "N=C(N)NC(=N)N1CCOCC1 [Moroxydine]", "relative cell viability": 105}
{"compound": "Nc1nc(F)nc2c1ncn2[C@@H]1O[C@H](COP(=O)(O)O)[C@@H](O)[C@@H]1O [Fludarabine Phosphate]", "relative cell viability": 119}
{"compound": "c1ccc2c(CC3=NCCN3)cccc2c1 [Naphazoline hydrochloride]", "relative cell viability": 106}
{"compound": "N#Cc1ccc(C(c2ccc(C#N)cc2)n2cncn2)cc1 [Letrozole]", "relative cell viability": 105}
{"compound": "O=C(O[C@H]1CN2CCC1CC2)N1CCc2ccccc2[C@@H]1c1ccccc1 [Solifenacin succinate]", "relative cell viability": 105}
{"compound": "CC(CN(C)C)CN1c2ccccc2CCc2ccccc21 (configuration not stated) [Trimipramine Maleate]", "relative cell viability": 102}
{"compound": "COc1cc2c(cc1O)CC[C@@H]1[C@@H]2CC[C@]2(C)[C@@H](O)CC[C@@H]12 [2-Methoxyestradiol]", "relative cell viability": 102}
{"compound": "C[C@]12CCC(=O)C=C1[C@@H]1C[C@@H]1[C@H]1[C@@H]3[C@@H]4C[C@@H]4[C@@]4(CCC(=O)O4)[C@@]3(C)CC[C@@H]12 [Drospirenone]", "relative cell viability": 100}
{"compound": "CCN1CCCC1CNC(=O)c1cc(S(=O)(=O)CC)c(N)cc1OC (configuration not stated) [Amisulpride]", "relative cell viability": 119}
{"compound": "CN(CCOc1ccc(CC2SC(=O)NC2=O)cc1)c1ccccn1 (configuration not stated) [Rosiglitazone HCl]", "relative cell viability": 104}
{"compound": "CS(=O)(=O)c1ccc([C@@H](O)[C@@H](CO)NC(=O)C(Cl)Cl)cc1 [Thiamphenicol]", "relative cell viability": 95.9}
{"compound": "COC(=O)[C@H](c1ccccc1Cl)N1CCc2sccc2C1 [Clopidogrel]", "relative cell viability": 105}

###

# reported relative cell viability; entries follow
# Test system: HL-1
# assayNotes: relative cell viability (CellTiter-Glo) vs DMSO control (% of DMSO control); higher = more viable cells
# conditions: oxygen condition: hypoxia 48 h (1% O2) + reoxygenation 24 h; 1000 nM

{"compound": "NC(=O)NO [Hydroxyurea]", "relative cell viability": 109}
{"compound": "CS(=O)(=O)CCNCc1ccc(-c2ccc3ncnc(Nc4ccc(OCc5cccc(F)c5)c(Cl)c4)c3c2)o1 [Lapatinib]", "relative cell viability": 99.7}
{"compound": "C=CC[N+]1([C@H]2C[C@H]3[C@@H]4CC[C@H]5C[C@H](O)[C@@H](N6CCOCC6)C[C@]5(C)[C@H]4CC[C@]3(C)[C@H]2OC(C)=O)CCCC1 [Rocuronium bromide]", "relative cell viability": 116}
{"compound": "CCC[C@H](N[C@@H](C)C(=O)N1[C@H](C(=O)O)C[C@@H]2CCCC[C@@H]21)C(=O)OCC [Perindopril Erbumine]", "relative cell viability": 107}
{"compound": "CCOC(=O)c1c(C)n(C)c2ccc(O)cc12 [Mecarbinate]", "relative cell viability": 101}
{"compound": "COc1cc(C(=O)NC2CCCNC2)cc(OC)c1OC (centres undefined) [Troxipide]", "relative cell viability": 106}
{"compound": "CCOC(=O)C1=C(COCCN)NC(C)=C(C(=O)OC)C1c1ccccc1Cl (centres undefined) [Amlodipine besylate]", "relative cell viability": 102}
{"compound": "COc1ccc(CNc2nc(N3CCC[C@H]3CO)ncc2C(=O)NCc2ncccn2)cc1Cl [Avanafil]", "relative cell viability": 97.5}
{"compound": "COc1cc(Nc2c(C#N)cnc3cc(OCCCN4CCN(C)CC4)c(OC)cc23)c(Cl)cc1Cl [Bosutinib]", "relative cell viability": 107}

###

# Tested on: HL-1
# assayNotes: relative cell viability (CellTiter-Glo) vs DMSO control (% of DMSO control); higher = more viable cells
# conditions: oxygen condition: normoxia 72 h; 200 nM
Counter-ions that a name gives are not always drawn.
# reported relative cell viability; entries follow

{"molecule": "CN(C)CCCN1c2ccccc2CCc2ccccc21 [Imipramine HCl]", "relative cell viability": 101}
{"molecule": "OCCN(CCO)c1nc(N2CCCCC2)c2nc(N(CCO)CCO)nc(N3CCCCC3)c2n1", "relative cell viability": 98.7}
{"molecule": "CN1C2=CC(=O)/C(=N\\NC(N)=O)C=C2CC1S(=O)(=O)O (stereo not drawn) [Carbazochrome sodium sulfonate]", "relative cell viability": 102}
{"molecule": "CCCC(=O)O[C@]1(C(=O)COC(C)=O)CC[C@H]2[C@@H]3C[C@H](F)C4=CC(=O)C=C[C@]4(C)[C@@]3(F)[C@@H](O)C[C@@]21C [Difluprednate]", "relative cell viability": 89}
{"molecule": "CC(C)NCC(O)COc1ccc(CCOCC2CC2)cc1 (stereo not drawn) [Betaxolol hydrochloride]", "relative cell viability": 106}
{"molecule": "CC(C)NCC(O)COc1ccc(CCOCC2CC2)cc1 (stereo not drawn) [Betaxolol]", "relative cell viability": 100}
{"molecule": "CC(=O)OCC(=O)[C@H]1CC[C@H]2[C@@H]3CCC4=CC(=O)CC[C@]4(C)[C@H]3CC[C@]12C [Deoxycorticosterone acetate]", "relative cell viability": 103}
{"molecule": "COCCc1ccc(OCC(O)CNC(C)C)cc1 (stereo not drawn) [Metoprolol tartrate]", "relative cell viability": 103}
